Entries and their MAdCAM IgG1 Fc fusion Assay Mean IC50 (Modified) values follow.
Biological target: MAdCAM-IgG1 Fc fusion protein (human)
Sequence (chain, as listed by the source limits assumed): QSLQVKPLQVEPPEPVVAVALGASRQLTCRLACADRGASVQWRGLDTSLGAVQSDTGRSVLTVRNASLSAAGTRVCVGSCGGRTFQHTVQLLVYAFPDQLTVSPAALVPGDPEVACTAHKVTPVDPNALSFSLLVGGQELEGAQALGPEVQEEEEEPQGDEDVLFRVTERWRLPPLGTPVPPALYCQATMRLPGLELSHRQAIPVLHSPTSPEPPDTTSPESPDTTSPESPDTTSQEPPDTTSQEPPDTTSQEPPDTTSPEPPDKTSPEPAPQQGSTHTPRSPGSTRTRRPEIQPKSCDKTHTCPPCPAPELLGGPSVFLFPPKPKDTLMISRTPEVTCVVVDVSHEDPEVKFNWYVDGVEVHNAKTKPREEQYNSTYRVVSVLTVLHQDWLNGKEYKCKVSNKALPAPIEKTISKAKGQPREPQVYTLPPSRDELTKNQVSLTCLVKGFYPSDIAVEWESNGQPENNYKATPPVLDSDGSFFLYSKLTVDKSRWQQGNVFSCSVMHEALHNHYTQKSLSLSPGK
Assay: cell-based or functional assay
Dear colleague, please return just the value in µg/mL, with no unit written.

A selection of reference data follows.
binder | unitSymbol | number
modified anti-MAdCAM monoclonal antibody 6.34.2-mod (antibody, human IgG2, kappa, V domains shown) VH: QVQLVESGGGVVQPGRSLRLSCAASGFTFSSYGMHWVRQAPGKGLEWVAVISNDGNNKYYADSVKGRFTISRDNSKNTLYLQMNSLRAEDTAVYYCARDSTAITYYYYGMDVWGQGTTVTVSS VL: DIQMTQSPSSLSASVGDRVTITCRASQSISSYLNWYQQKPGKAPKLLIYAASGLKRGVPSRFSGSGSGTDFTLTISSLQPEDFATYYCHQSYSLPFTFGPGTKVDIKR | µg/mL | 0.049
modified anti-MAdCAM monoclonal antibody 7.26.4-mod (antibody, human IgG2, kappa, V domains shown) VH: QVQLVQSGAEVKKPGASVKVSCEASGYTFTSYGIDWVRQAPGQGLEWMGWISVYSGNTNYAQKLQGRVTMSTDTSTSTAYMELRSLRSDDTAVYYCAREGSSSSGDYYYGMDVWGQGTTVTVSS VL: DIVMTQTPLSLSVTPGQPASISCKSSQSLLYSDGKTYLFWYLQKPGQPPQLLIYEVSNRFSGVPDRFSGSGSGTDFTLKISRVEAEDVGVYYCMQSIQLPWTFGQGTKVEIKR | µg/mL | 0.033

Need MAdCAM IgG1 Fc fusion Assay Mean IC50 (Modified), item modified anti-MAdCAM monoclonal antibody 6.22.2-mod (antibody, human IgG2, kappa, V domains shown) VH: QVQLVESGGGVVQPGRSLRLSCAASGFTFSSDGMHWVRQAPGKGLEWVAIIWYDGSNKYYADSVKGRFTISRDNSKNTLYLQMNSLRAEDTAVYYCARDPGYYYGMDVWGQGTTVTVSS VL: EIVLTQSPDFQSVTPKEKVTITCRASQRIGSSLHWYQQKPDQSPKLLIKYASQSFSGVPSRFSGSGSGTDFTLTINSLEAEDAATYYCHQSGRLPLTFGGGTKVEIKR 0.058

Record: modified anti-MAdCAM monoclonal antibody 6.77.1-mod (antibody, human IgG2, kappa, V domains shown) VH: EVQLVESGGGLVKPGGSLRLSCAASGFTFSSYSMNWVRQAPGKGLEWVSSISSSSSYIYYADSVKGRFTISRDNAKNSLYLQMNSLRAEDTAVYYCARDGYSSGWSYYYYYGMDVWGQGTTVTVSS VL: DIVMTQTPLSLSVTPGQPASISCKSSQSLLLSDGKTYLNWYLQKPGQPPQLLIYEVSNRFSGVPDRFSGSGSGTDFTLKISRVEAEDVGVYSCMQSIQLMSSFGQGTKLEIKR 0.077

Every entry's value here was drawn from patent US20190300605A1.
